Values were extracted from ChEMBL document CHEMBL1129257.

# target desc: Tumor necrosis factor (Homo sapiens, UniProt P01375)
# Sequence (P01375 whole entry): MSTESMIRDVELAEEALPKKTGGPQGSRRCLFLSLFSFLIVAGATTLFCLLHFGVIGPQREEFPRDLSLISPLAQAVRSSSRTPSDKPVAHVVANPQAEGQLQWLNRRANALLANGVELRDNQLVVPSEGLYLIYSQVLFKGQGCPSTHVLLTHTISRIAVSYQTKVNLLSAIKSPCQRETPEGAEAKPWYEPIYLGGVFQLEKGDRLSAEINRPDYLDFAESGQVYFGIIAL
# measurement notes: Inhibition of TNF-alpha production from human monocytes upon stimulation with bacterial lipopolysaccharide (LPS) at a concentration of 1 uM
# Type: functional
# assay setup: values are per cent of control
For each record, write down the corresponding response, % of control.
Express the reported value numerically, then name its unit.

Use these answered entries as a reference point.
# compound, response, % of control
data = [
    ("Cc1cccc(C)c1N1C(=O)c2c(F)c(F)c(F)c(F)c2C1=O", "3%"),
    ("CC(C)c1cccc(C(C)C)c1N1C(=O)c2c(F)c(F)c(F)c(F)c2C1=O", "5%"),
    ("CC(C)c1cccc(C(C)C)c1N1C(=O)c2c(Cl)c(Cl)c(Cl)c(Cl)c2C1=O", "70%"),
    ("CCc1cccc(CC)c1N1C(=O)c2c(F)c(F)c(F)c(F)c2C1=O", "-1%"),
    ("CC(C)(C)c1cccc(C(C)(C)C)c1N1C(=O)c2c(F)c(F)c(F)c(F)c2C1=O", "-2%"),
    ("O=C1CCC(N2C(=O)c3c(F)c(F)c(F)c(F)c3C2=O)C(=O)N1 (racemic)", "4%"),
    ("CC(C)c1cccc(C(C)C)c1N1C(=O)c2c(Br)c(Br)c(Br)c(Br)c2C1=O", "62%"),
    ("O=C1CCC(N2C(=O)c3c(Cl)c(Cl)c(Cl)c(Cl)c3C2=O)C(=O)N1 (racemic)", "75%"),
    ("O=C1CCC(N2C(=O)c3c(Br)c(Br)c(Br)c(Br)c3C2=O)C(=O)N1 (racemic)", "53%"),
    ("COC(=O)CC(c1ccc(OC)c(OC)c1)N1C(=O)c2c(F)c(F)c(F)c(F)c2C1=O (racemic)", "-5%"),
]

We now examine a further compound.
Challenge: Identify the measured response, % of control of O=C1c2c(F)c(F)c(F)c(F)c2C(=O)N1c1ccccc1 for Tumor necrosis factor (Homo sapiens, UniProt P01375).
Response given: 65%

* * *

# target desc: Tumor necrosis factor (Homo sapiens)
# measurement notes: Inhibition of TNF-alpha production from human monocytes upon stimulation with bacterial lipopolysaccharide (LPS) at a concentration of 215 nM
# Type: functional
# assay setup: values are per cent of control
The threshold is 60%. Values of response, % of control beneath it are tagged T; values meeting or exceeding it are tagged F.

Worked cases, answers included:
# compound, answer label
data = [
    ("CC(C)c1cccc(C(C)C)c1N1C(=O)c2c(Br)c(Br)c(Br)c(Br)c2C1=O", "F"),
    ("CC(C)c1cccc(C(C)C)c1N1C(=O)c2c(Cl)c(Cl)c(Cl)c(Cl)c2C1=O", "F"),
    ("Cc1cccc(C)c1N1C(=O)c2c(F)c(F)c(F)c(F)c2C1=O", "T"),
    ("O=C1c2c(F)c(F)c(F)c(F)c2C(=O)N1c1ccccc1", "F"),
]

Challenge: Confirm or reject: response, % of control of CC(C)c1cccc(C(C)C)c1N1C(=O)c2c(F)c(F)c(F)c(F)c2C1=O lies strictly below 60%
Response given: T

Challenge: Confirm or reject: response, % of control of O=C1CCC(N2C(=O)c3c(Cl)c(Cl)c(Cl)c(Cl)c3C2=O)C(=O)N1 (racemic) lies strictly below 60%
Response given: F

Challenge: Confirm or reject: response, % of control of O=C1CCC(N2C(=O)c3c(F)c(F)c(F)c(F)c3C2=O)C(=O)N1 (racemic) lies strictly below 60%
Response given: F

Challenge: Confirm or reject: response, % of control of CC(C)(C)c1cccc(C(C)(C)C)c1N1C(=O)c2c(F)c(F)c(F)c(F)c2C1=O lies strictly below 60%
Response given: T
